target: Nuclear receptor ROR-gamma (Homo sapiens) (UniProt P51449); test: qHTS assay to identify small molecule antagonists of the retinoid-related orphan receptor gamma (ROR-gamma) signaling pathway (AID 1159521; note: nearly all actives have a fitted effect of over 50% in size); details: Tet-on RORgamma CHO cells, RORE-luciferase, 16 h; series mostly up to 92.4 µM
Inconclusive results are not listed. The source made the active and inactive calls. Calls come from the whole dose curve; as a rule, active = well fitted inhibition curve with a large enough effect in the repeat runs; inconclusive = weak or mixed curves, or effect the other way; inactive = no such curve, though single readings can be large or run the other way.
Can you answer with just one of these options? true = active, false = inactive

{"COMPOUND": "CCN(CC)CCc1c[nH]c2ccccc12", "ASSIGNED_CATEGORY": "false"}
{"COMPOUND": "COc1ccc(Cc2nccc3cc(OC)c(OC)cc23)cc1OC", "ASSIGNED_CATEGORY": "true"}
{"COMPOUND": "ClSC(Cl)(Cl)Cl", "ASSIGNED_CATEGORY": "false"}
{"COMPOUND": "CN/C(=N\\[N+](=O)[O-])NCc1cnc(Cl)s1", "ASSIGNED_CATEGORY": "false"}
{"COMPOUND": "Fc1ccc(C(OCCN2CCN(CCCc3ccccc3)CC2)c2ccc(F)cc2)cc1", "ASSIGNED_CATEGORY": "true"}

Outcome logged for Nc1nc(N)c(N)c(N)n1 in this assay: false

I'd appreciate the recorded outcome for [O]=[Cr][O][Cr]=[O] from this test. false

Status in this test for Oc1cc(Cl)cc(Cl)c1 ? false

Field: outcome | Entry: CCOP(=O)(OCC)Oc1cc(C)nc(C(C)C)n1 false
